- Tested on: HCC-2998 colon
- Protocol text: NCI tumour cell line growth inhibition, 48 h; in the data active means GI50 below about 0.43 µM; inactive means the rest
Mark one answer only. Choices: active, inactive

Prompt: // param item: `Nc1nn(C(=O)Nc2c(F)cccc2F)c2ccccc12` ; yields the recorded call
Response: inactive

Prompt: // param item: `Cn1c(-c2c(N)n(Cc3ccc(F)cc3)c3nc(C#N)c(C#N)nc23)nc2ccccc21` ; yields the recorded call
Response: inactive

Prompt: // param item: `COc1ccc(-c2[nH]nc(N)c2-c2cc(OC)c(OC)c(OC)c2)cc1` ; yields the recorded call
Response: active

Prompt: // param item: `Nc1ncn([C@H]2C[C@H](OP(=O)(O)OC[C@H]3O[C@@H](n4cnc5c(=O)[nH]c(N)nc54)C[C@@H]3O)[C@@H](CO)O2)c(=O)n1` ; yields the recorded call
Response: inactive

Prompt: // param item: `CN(C)C=Nc1c(I)cc(I)c(CCC(=O)O)c1I` ; yields the recorded call
Response: inactive

Prompt: // param item: `O=C1c2cc(F)ccc2-c2c1c1ccc([N+](=O)[O-])cc1c(=O)n2CCCBr` ; yields the recorded call
Response: inactive

Prompt: // param item: `C=CC(=O)N1CC[C@H](n2nc(C#Cc3cc(OC)cc(OC)c3)c3c(N)ncnc32)C1` ; yields the recorded call
Response: inactive

Prompt: // param item: `Cc1[nH]nc2ncc(C(=O)N3CCC[C@H]3c3ccc(Cl)cc3)cc12` ; yields the recorded call
Response: inactive

Prompt: // param item: `CCCCCCCCCCCCCCCCN(CC)CC` ; yields the recorded call
Response: inactive

Prompt: // param item: `Cc1cccc(Cl)c1NC(=O)c1cnc(Nc2cc(N3CCOCC3)cc(S(C)(=O)=O)c2)s1` ; yields the recorded call
Response: inactive

Prompt: // param item: `CCOC(=O)c1cc(NS(=O)(=O)c2ccc(C)cc2)cc(C(=O)OCC)c1` ; yields the recorded call
Response: inactive

Prompt: // param item: `O=C(O)c1cn(C2CC2)c2cc(N3CCN(Cc4c(O)ccc5ccccc45)CC3)c(F)cc2c1=O` ; yields the recorded call
Response: inactive

Prompt: // param item: `C=CC(=O)Nc1cccc(Oc2nc(Nc3ccc(N4CCN(C)CC4)cc3OC)ncc2Cl)c1` ; yields the recorded call
Response: inactive

Prompt: // param item: `COc1ccc(NC(=O)c2ccc(NC3=C(Cl)C(=O)N(Cc4ccccc4)C3=O)cc2)c(OC)c1` ; yields the recorded call
Response: inactive

Prompt: // param item: N#CC1=C(N)Oc2c(sc3c(Br)cccc23)C1c1ccc(Cl)cc1 (configuration not stated) ; yields the recorded call
Response: inactive

Prompt: // param item: `CC(C)C(=O)c1c(C(F)(F)F)n([O-])c2ccccc2[n+]1=O` ; yields the recorded call
Response: inactive

Prompt: // param item: Cc1ccccc1C(C(=O)NC1CCCCC1)N(C(=O)CNc1ccc(C#N)cc1)c1cccc(F)c1 (configuration not stated) ; yields the recorded call
Response: inactive

---

- System: HT29 colon
- Protocol text: NCI tumour cell line growth inhibition, 48 h
Residues, ends and D or L forms follow the SMILES beside them. *: point of attachment. Cbz = O=C(OCc1ccccc1)*
Endpoint label: TGI (µM)
# number only, unit µM dropped from output

Prompt: Fill in: TGI of Cc1ccsc1-c1ccc2c(c1)COC2(CCCN(C)C)c1ccc(F)cc1 (centres undefined) is ___
Response: 8.45

Prompt: Fill in: TGI of CC(C)C(Sc1nc(-c2ccccc2)c(-c2ccccc2)[nH]1)c1n[nH]c(=S)n1-c1ccccc1 (centres undefined) is ___
Response: 70.3

Prompt: Fill in: TGI of `Cc1ccc(C(=O)NCCN(C)C)c2nc3ccccc3cc12` is ___
Response: 11.3

Prompt: Fill in: TGI of CCOC(=O)C12CC(C)=C(C)CC1CCCc1ccccc12 (centres undefined) is ___
Response: 36.5

Prompt: Fill in: TGI of `O=C(CSSCC(=O)OCCS(=O)(=O)Nc1ccc(Br)cc1)OCCS(=O)(=O)Nc1ccc(Br)cc1` is ___
Response: 31.8

Prompt: Fill in: TGI of `Cn1cc(C2=C(c3cn(CCCCCO)c4ccccc34)C(=O)NC2=O)c2ccccc21` is ___
Response: 13.9

Prompt: Fill in: TGI of CC(C)C[C@@H](C=O)NC(=O)[C@H](CC(C)C)NC(=O)[C@H](CC(C)C)NC(=O)OCc1ccccc1 (Cbz-Leu-Leu-Leu-aldehyde) is ___
Response: 0.647

Prompt: Fill in: TGI of `c1ccc2c(CNCCCCCCCCNCc3cccc4ccccc34)cccc2c1` is ___
Response: 3.35

---

Please provide measured TGI for the entries that follow.
- System: CAKI-1 renal
- Protocol text: NCI tumour cell line growth inhibition, 48 h

Prompt: API: value(readout=TGI, system=CAKI-1 renal) for record O=CN1CCC23CC(O)CCC2C1Cc1cc(Oc2nnnn2-c2ccccc2)cc(O)c13 (stereo not given)
Response: > 100 µM

Prompt: API: value(readout=TGI, system=CAKI-1 renal) for record Cc1cc2c(cc1Cl)SC(c1ccccc1O)NS2(=O)=O (stereo not given)
Response: > 100 µM

Prompt: API: value(readout=TGI, system=CAKI-1 renal) for record `Cn1cc(-c2nnc(-c3ccc(Cl)cc3)[nH]c2=O)c2ccccc21`
Response: > 100 µM

Prompt: API: value(readout=TGI, system=CAKI-1 renal) for record `O=C(O)c1cn(C2CC2)c2cc(N3CCN(Cc4c(O)ccc5ccccc45)CC3)c(F)cc2c1=O`
Response: > 100 µM

Prompt: API: value(readout=TGI, system=CAKI-1 renal) for record CN1CC2=C(NC(=S)NC2c2ccccc2Cl)/C(=C/c2ccccc2Cl)C1 (stereo not given)
Response: > 100 µM

Prompt: API: value(readout=TGI, system=CAKI-1 renal) for record `CCOC(=O)c1cc(NS(=O)(=O)c2ccc(C)cc2)cc(C(=O)OCC)c1`
Response: > 100 µM

Prompt: API: value(readout=TGI, system=CAKI-1 renal) for record `CN(C)CCS(=O)(=O)Nc1cc(-c2ccc3ncc(C#N)c(Nc4ccc(F)c(Cl)c4)c3c2)cnc1Cl`
Response: 0.511 µM

Prompt: API: value(readout=TGI, system=CAKI-1 renal) for record `c1ccc2c(CNCCCCCCCCNCc3cccc4ccccc34)cccc2c1`
Response: 5.01 µM

Prompt: API: value(readout=TGI, system=CAKI-1 renal) for record `Cc1sc2c(c1C)C(c1ccc(Cl)cc1)=N[C@@H](CC(=O)NCCCN1CCN(C)CC1)c1nnc(C)n1-2`
Response: > 100 µM

Prompt: API: value(readout=TGI, system=CAKI-1 renal) for record `COc1cc(/C=C/C(=O)c2c(-c3ccc(F)cc3)nc3sc(C)nn23)cc(OC)c1OC`
Response: 18.2 µM

---

- Test system: IGROV1 ovarian
- Protocol text: NCI tumour cell line growth inhibition, 48 h; in the data active = GI50 below about 0.43 µM; inactive = the rest
Mark one answer only. Choices: label 1 = active, label 0 = inactive

Prompt: // param item: Cc1ccccc1C(C(=O)NC1CCCCC1)N(C(=O)CNc1ncccc1F)c1cccc(F)c1 (stereo not drawn) ; yields the recorded call
Response: label 0

Prompt: // param item: `Cn1c(=O)c(Oc2ccc(F)cc2F)cc2cnc(NC3CCOCC3)nc21` ; yields the recorded call
Response: label 0

Prompt: // param item: `CN(C)CCNC(=O)c1ccc2oc3cc4ccccc4c(=O)n3c2c1` ; yields the recorded call
Response: label 0

Prompt: // param item: `CNC(=O)c1cccc(C#Cc2cncnc2Nc2ccc(OCc3cccc(F)c3)c(Cl)c2)c1` ; yields the recorded call
Response: label 0

Prompt: // param item: COc1cc2nc3cc([N+](=O)[O-])ccc3c(NCCNCC(C)O)c2cc1OC (stereo not drawn) ; yields the recorded call
Response: label 0

Prompt: // param item: `COc1ccc(-c2[nH]nc(N)c2-c2cc(OC)c(OC)c(OC)c2)cc1` ; yields the recorded call
Response: label 1

Prompt: // param item: `COc1ccc(Cn2cc3c(c2-c2cc(OC)c(OC)c(OC)c2)CCc2c(CO)noc2-3)cc1` ; yields the recorded call
Response: label 0

Prompt: // param item: `Oc1ccccc1/C=N\NC(=S)N/N=C/c1ccccc1O` ; yields the recorded call
Response: label 0

Prompt: // param item: [Cu+2].[NH-]C(CC(=O)O)C(=O)O.[NH-]C(CC(=O)O)C(=O)O (stereo not drawn) ; yields the recorded call
Response: label 0

Prompt: // param item: `COc1cc(CCC(=O)NC[C@@H](O)c2ccccc2)ccc1O` ; yields the recorded call
Response: label 0

Prompt: // param item: `CN(C)c1ccccc1[CH2][Ga]([Cl])[CH2]c1ccccc1N(C)C` ; yields the recorded call
Response: label 0

Prompt: // param item: `CCOC(=O)c1cc(NS(=O)(=O)c2ccc(C)cc2)cc(C(=O)OCC)c1` ; yields the recorded call
Response: label 0

Prompt: // param item: `NC(N)=Nc1ccc(/C=C2\C=Cc3ccccc32)cc1` ; yields the recorded call
Response: label 0

Just for reference, PubChem BioAssay (NCI) is where these values come from.
